# TEST TARGET: 5-hydroxytryptamine receptor 1A (Rattus norvegicus, UniProt P19327)
# Sequence (P19327 whole entry): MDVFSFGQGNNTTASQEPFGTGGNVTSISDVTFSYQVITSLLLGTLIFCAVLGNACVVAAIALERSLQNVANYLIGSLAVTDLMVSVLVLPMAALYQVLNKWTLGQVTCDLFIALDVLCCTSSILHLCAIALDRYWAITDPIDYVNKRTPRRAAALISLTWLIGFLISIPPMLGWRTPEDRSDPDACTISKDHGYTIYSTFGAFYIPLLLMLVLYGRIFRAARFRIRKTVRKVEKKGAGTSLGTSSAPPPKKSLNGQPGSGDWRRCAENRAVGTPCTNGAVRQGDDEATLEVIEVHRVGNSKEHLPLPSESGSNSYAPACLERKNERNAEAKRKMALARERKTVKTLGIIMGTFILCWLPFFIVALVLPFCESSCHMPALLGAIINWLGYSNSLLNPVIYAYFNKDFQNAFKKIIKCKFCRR
READOUT TYPE: Ki (µM)
Number in µM, nothing else.

SMILES REPR	UNITS SYMBOL	Ki
Cc1[nH]c2ccc(O)cc2c1CCN	µM	1.2

Field: next compound
Lookup: Given `COc1ccc2[nH]c(C)c(CCN)c2c1` , state its recorded Ki.
Found: 1.3
